Quick list: λmax (nm) per entry.
# method-notes: UV/vis spectroscopy of complexes 1-13
# Format: physicochemical
# assay-conditions: DMSO, 0.001 mmol concentration; wavelengths greater than 300 nm

Previously resolved entries follow.
• CNC1=NN=C(C)C(C)=NN=C(N/N=C/c2ccccc2O)[S][Zn][S]1 [Complex 5, Zn[ATSM/A-salicylaldehyde]] = 346 nm
• CNC1=NN=C(C)C(C)=NN=C(N/N=C/c2c(O)ccc3ccccc23)[S][Zn][S]1 [Complex 6, Zn[ATSM/A-2-hydroxynaphthaldehyde]] = 334 nm
• CNC1=NN=C(C)C(C)=NN=C(N/N=C/C=N/NC2=NN=C(C)C(C)=NN=C(NC)[S][Zn][S]2)[S][Zn][S]1 [Complex 11, Zn2[ATSM/A-glyoxal-ATSM/A]] = 330 nm
• CNC1=NN=C(C)C(C)=NN=C(N/N=C/c2ccco2)[S][Zn][S]1 [Complex 4, Zn[ATSM/A-2-furaldehyde]] = 340 nm
• CNC1=NN=C(C)C(C)=NN=C(N/N=C/c2ccccc2)[S][Zn][S]1 [Complex 3, Zn[ATSM/A-benzaldehyde]] = 333 nm
• CNC1=NN=C(C)C(C)=NN=C(N/N=C/c2cccc(/C=N/NC3=NN=C(C)C(C)=NN=C(NC)[S][Zn][S]3)c2)[S][Zn][S]1 [Complex 13, Zn2[ATSM/A-isopthalaldehyde-ZnATSM/A]] = 339 nm

The recorded λmax (nm) for entry CNC1=NN=C(C)C(C)=NN=C(N/N=C/C(=O)c2ccccc2)[S][Zn][S]1 [Complex 9, Zn[ATSM/A-phenylglyoxal]] equals 341 nm

The recorded λmax (nm) for entry CCCN(CCC)c1ccc(/C=N/NC2=NN=C(C)C(C)=NN=C(NC)[S][Zn][S]2)cc1 equals 321 nm

The recorded λmax (nm) for entry CNC1=NN=C(C)C(C)=NN=C(NN)[S][Zn][S]1 [Complex 2, Zn[ATSM/A]] equals 315 nm

The recorded λmax (nm) for entry CNC1=NN=C(C)C(C)=NN=C(N/N=C(\C)C(C)=O)[S][Zn][S]1 [Complex 8, Zn[ATSM/A-butane-2,3-dione]] equals 323 nm

====

# method-notes: UV/vis spectroscopy of complexes 1-13
# Type: physicochemical
# assay-conditions: DMSO, 0.001 mmol concentration
assay-readout: λmax (nm), (higher wavelength absorption peak, lowest energy transition)
Unit nm implied. Number only.

Previously resolved entries follow.
- CCCN(CCC)c1ccc(/C=N/NC2=NN=C(C)C(C)=NN=C(NC)[S][Zn][S]2)cc1: 465
- CNC1=NN=C(C)C(C)=NN=C(N/N=C/c2ccc(C=O)cc2)[S][Zn][S]1 [Complex 10, Zn[ATSM/A-terephthalaldehyde]]: 468
- CNC1=NN=C(C)C(C)=NN=C(N/N=C(\C)C(C)=O)[S][Zn][S]1 [Complex 8, Zn[ATSM/A-butane-2,3-dione]]: 455

// next item, λmax (nm), (higher wavelength absorption peak, lowest energy transition) requested
The recorded λmax (nm), (higher wavelength absorption peak, lowest energy transition) for entry CNC1=NN=C(C)C(C)=NN=C(NN)[S][Zn][S]1 [Complex 2, Zn[ATSM/A]] equals 429
